Target: human glucagon receptor (human) (UniProt P47871)
Assay: cell-based or functional assay
Give cAMP EC50 (1.0% HSA) for every item shown.

Substance	Result
Y-Aib-EGT-αMeF(2F)-TSD-4Pal-SI-αMeL-LD-Orn-K((2-[2-(2-Amino-ethoxy)-ethoxy]-acetyl)2-(γ-Glu)-CO-(CH2)12-CO2H)AQ-Aib-EFI-(D-Glu)-αMeY-LIEGGK((2-[2-(2-Amino-ethoxy)-ethoxy]-acetyl)2-(γ-Glu)-CO-(CH2)12-CO2H)SSG-Orn-PPP-Orn-NH2 (peptide)	> 9.95 µM
Y-Aib-EGT-αMeF(2F)-TSD-4Pal-SI-αMeL-LD-Orn-K((2-[2-(2-Amino-ethoxy)-ethoxy]-acetyl)2-(γ-Glu)-CO-(CH2)12-CO2H)AQ-Aib-EFI-(D-Glu)-αMeY-LIEGGK((2-[2-(2-Amino-ethoxy)-ethoxy]-acetyl)2-(γ-Glu)-CO-(CH2)12-CO2H)SSG-Orn-PPPS-NH2 (peptide)	> 9.95 µM

State its cAMP EC50 (1.0% HSA): Y-Aib-EGT-αMeF(2F)-TSD-4Pal-SI-αMeL-LD-Orn-K((2-[2-(2-Amino-ethoxy)-ethoxy]-acetyl)2-(εK)-CO-(CH2)12-CO2H)AQ-Aib-EFI-(D-Glu)-αMeY-LIEGGK((2-[2-(2-Amino-ethoxy)-ethoxy]-acetyl)2-(εK)-CO-(CH2)12-CO2H)-NH2 (peptide)
> 9.95 µM

Attribution: patent US20230265151A1
